# System: MS2 coat protein
# Experimental details: apparent KD of MS2 coat protein; designed switch direction (-1 OFF switch, 1 ON switch): 1; higher = weaker reporter binding
# Condition summary: input ligand: FMN 200 uM
Property label: apparent KD of MS2 coat protein
Hey, just the number and the unit after it is fine.

AGCCGAAGCGCAGGAUAUACAUGCACACAUGAGGAUCACCCAUGUGGCAACACGUGGUAGUGAUUGUAGAAGGGUGCUCGGCGC [Omei SS(NG)2 Cv16] (Eterna round: R96, puzzle: Same State NG 2)
60.1 nM

Go through the items and report each one's apparent KD of MS2 coat protein.
1. GUAGCAUACCGAGGAUAUUCAUAUUACAUGAGGAUCACCCAUGUUAUAUAGGCCAAAAGGCCUUGGGAGAAGGCGGAAUGCUAC [Xeonanis - 20 Mod9] (Eterna round: R96, puzzle: Same State NG 2)
2. GUUACAUGAGGAUCACCCAUGUAUGUGUGGGAGUAAGUGUCUUAGGAUAUCUGUUAUUUGAUUUAAGAGAAGGAAGAUUGUUGU [JMF's solution 40] (Eterna round: R96, puzzle: Same State NG 3)

10.3 nM
123 nM

----------
Task for the reader: assign each of the following sequences its reported apparent KD of MS2 coat protein.
# System: MS2 coat protein
# Experimental details: apparent KD of MS2 coat protein; designed switch direction (-1 OFF switch, 1 ON switch): -1; higher = weaker reporter binding
# Condition summary: input ligand: FMN 200 uM
Give bare numbers, in nM.

Go through the items and report each one's apparent KD of MS2 coat protein.
1. CAGUACUGAGGAUAUACAUGAGGAUCACCCAUGUUCCAAGGCUAGGAAACUAGCAAAAGUAGAAGGCAGUACUG [828 mod 2 m3] (Eterna round: R97, puzzle: Exclusion 3)
2. UAGAUUCAUUCCUCUAUAAACAUGAGGAUCACCCAUGUAAGUGAGGAUAUAGUAGGAGUUGUAUACUAGAAGGCACUUAGUUUU [JR_ExcNG3_Sub049] (Eterna round: R96, puzzle: Exclusion NG 3)
3. AGAUGCUCAAGUCGACAUGAGGAUCACCCAUGUACAGUAAACGAGGAUAUCCGAGAUAAAUAAUAGGAGAAGGCGUGAUCAUGA [Mat - Exclusion NG 3 - Mod of JL - D55] (Eterna round: R96, puzzle: Exclusion NG 3)

1: 472; 2: 49.4; 3: 337

----------
# System: MS2 coat protein
# Experimental details: apparent KD of MS2 coat protein, switch OFF state (with FMN for OFF switches, without FMN for ON switches); designed switch direction (-1 OFF switch, 1 ON switch): -1; higher = weaker reporter binding
# Condition summary: FMN input: 0 or 200 uM; Eterna round: R93 (includes R88 designs)
Please mark true if the recorded apparent KD of MS2 coat protein is equal to or greater than 30 nM, and false if it falls below.

The following sequences have reported results that may help.
AAAAGGGCAGGAUAUGCGUACUCACGGGAAAGCUGGAUGGUACAUGAGGAUCACCCAUGUAGAAGGGCUAAAAA [Dora Explored 18 - Jieux - Exclusion 2]
false
AAAAAACAUGAGGAUCACCCAUGUAAGGAUAUGCUCGUCAGUGCGAAAGCACAGAUGAGCAGAAGGUACAAAAA [66%, Wbt, 43]
true
AAAUAGCAAGGAUAUACAUGAGGAUCACCCAUGUGACCCAGGUAUGGCAUAGAAUAGAGUAGAAGGUGCAAAUA [Mod 4 of Ex 3 Tesla 8 - Jieux - Exclusion 3]
true
AAGAAGACAGGAUAUACAAAAUAAAAGAAAAGAAAGAAAGAACAUGAGGAUCACCCAUGUAGAAGGGUCAAGAA [Sekhemkare Amenemhat V]
true

For this sequence, is measured apparent KD of MS2 coat protein 30 nM or higher? AAAAAACAUGAGGAUCACCCAUGUAAGGAUAUGCAAAACCCAUAUAAAAAGGGAAAAAGCAGAAGGUGCAAAAA [wbt round 1 mod 5]
true

For this sequence, is measured apparent KD of MS2 coat protein 30 nM or higher? AGAGGACAUGAGGAUCACCCAUGUGAGGAUAUGCACAACUAAGGACAAGAUCGCUAUAGCAGAAGGCACGUACU [JR_EXc001_Sub809]
true

For this sequence, is measured apparent KD of MS2 coat protein 30 nM or higher? AUCAUGUAAGGAUAUGUAAGAAAAGAAAAGAAAGAAAAGAAACAGAAGGUACAUGAGGAUCACCCAUGUAAGAA [EteRNA is fun!]
true

For this sequence, is measured apparent KD of MS2 coat protein 30 nM or higher? AAGAACGAAGGAUAUACAUGAGGAUCACCCAUGUAAAAGAAAGAAAAGGGAAAGAAAAGUAGAAGGUCGAAGAA [Banenre Merenptah]
true

For this sequence, is measured apparent KD of MS2 coat protein 30 nM or higher? AAGAACUUAGGAUAUACAAGGAAGAAAGAAAAGAAAAGAAAACAUGAGGAUCACCCAUGUAGAAGGAAGUAGAA [EteRNA is fun!]
false

----------
Task for the reader: assign each of the following sequences its reported apparent KD of K4 kissing-loop reporter.
# Test system: K4 kissing-loop RNA reporter;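 further: bound reporter read as fluorescence of individual clusters on recovered sequencing chips by microscopy, with normalized cluster intensities fitted with a binding model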
# Experimental details: apparent KD of K4 kissing-loop reporter; higher = weaker reporter binding
# Condition summary: Eterna round: R107; input ligand: FMN 200 uM

Reference set, count: 10
AGACCUCAGUGAUGUUGAGGUAACACUGAUACCAGCGACUUGAUUCGCCCUUGGCAGCAGUCCACCGAGGUAUCUGAUCAGGUCA [#25 K4 Theophylline A Exclusion]
159 nM
GGCGCUGUCUGUGCCGCCCUCCUCGUCCCUCGAGGACCGGUACGGCCGCCACUCGAGUGAUGUUCGGGUAGCCCUCCCUGCCAGC [BDazzled - #22 Exc. Tryptophan A]
462 nM
GCCUAGGCUCGAAAGAGCCUAGGCUGGGCUCAGGAUAUCCGGAAACGGAGAAGGGAGGGACUAGUGAUGUUAGGGAUUCCCUAUG
461 nM
UGGAUGUAGUGAUGUUAUAUAGAGAGUGAUACCAGUUUAGAGAAGAACCCUUGGCAGCAUAGAAGAGUAUCAUUGGAGAAGAAUG [ExTheophyl.Ar]
308 nM
CGCAGUGAUGUUGCUAUUGUUCUUGGUUAACGAGGACCGGUACGGCCGCCACUCGAUGUCUGUCUAGUCCAGUGUUUUUUUGAGU [whbob_EX_Tryp_A_t9]
513 nM
UUAUAACCCAGUGAUGUUGGGUAGCGGCCACGAGGACCGGUACGGCCGCCACUCGAGGUUUAACCAGUGAUGUUGGACUAUAUAA [Same state Tryptophan A GF 4]
51 nM
CGCAGUGAUGUUGCGAGUAGCUACAGGGAAGGAGCGUGCUAGAGCACAGGUAGGUCGCCCACGCAGUGAUGUUGUGUCAAAGGGU [Exclusion Arginine A GF 11]
167 nM
CCGCUGUACUGCAAUAAGUGAUGUUUAUUGCAGGAUAUCUGGAAACAGAGAAGGGCAUGUACUCGACUUAGCCACUACAGCGGUU
144 nM
GGGAGUAGUGCGGCCGCCACUGAGAAAGAAGAAGAAUAUAGUGAUGUUAUAUAGGAAAGGAAGAACAGGACCGGGCAUUAGAGGG [SSTRyptB.C]
163 nM
UAAUCCUAGUGAUAAUAAUCAAGUGGUGGGCGAGGACCGGUACGGCCGCCACUCGAAUAUGCAGUGAUGUUGUAAUCCGGAUAAU [Exclusion - Tryptophan A (Freestyle 6)]
667 nM

Return value of apparent KD of K4 kissing-loop reporter for input GAGUCGGCACAAGGAUAUAGGUGUAGUGAUGUUAUGUCUCCUUGACUCACUCGUUACCCUCAACGUCUAGAAGGUGUGAAUGCAG [theeternabot_exclusion_KL_FMN_B_46] , no commentary.
328 nM

----------
Task for the reader: assign each of the following sequences its reported apparent KD of MS2 coat protein.
# System: MS2 coat protein
# Experimental details: apparent KD of MS2 coat protein; higher = weaker reporter binding
# Condition summary: Eterna round: R107; input ligand: none
Answers are plain numbers, in nM.

Reference set, count: 2
AGUACUCGAACGGAUACCAGCCGGACAUGAGGAUCACCCAUGUCCUACCAUUGUUCGGUUGGCCCUUGGCAGCCGUUCGUGUACA [Omei Theo B SS A v4]
930
UCGACGAUGACCAAAGGUCAGGAGUACGUACGAGGACCGGUACGGCCGCCACUCGAGGAGUGGGACAUGAGGAUCACCCAUGUGG [#20 Exclusion Tryptophan A]
38.2

Now examine the next entry.
State apparent KD of MS2 coat protein on MS2 coat protein. Entry: UUAAUGAUAUAUCAUAUGAUAUAUCCAGAAGGAGCGUCAUAAAUGGCAGGUAGGUCGCUGAAGGCAACAUGAGGAUCACCCAUGU [#16 Same State - Arginine A]
28.6
